The measurements presented in this section are drawn from paper PMC11310338.

Biological target: T1, SCAF4-CID (human, UniProt O95104 1-139)
T1 sequence: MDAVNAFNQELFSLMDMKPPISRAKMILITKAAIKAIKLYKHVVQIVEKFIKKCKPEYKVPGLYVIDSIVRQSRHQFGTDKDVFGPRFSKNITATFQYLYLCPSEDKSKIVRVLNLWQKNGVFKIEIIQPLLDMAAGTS
Experiment: fluorescence polarization
endpoint: pKd
pKd here: minus log base 10 of the concentration, concentration in moles per litre.

The binder listed as GTGGG (ssDNA) [SCAF4_LS (D2_5-nt)] has a reported pKd of 6.72
